biological target: GluA2/3 (Rattus norvegicus, UniProt P19491+P19492); construct: expressed in transfected cells; host or cells: HEK293T; test: Whole-cell patch-clamp recording of heteromeric GluA2/3 AMPAR expressed in HEK293T cells; assay type: cell-based; settings: 10 mM glutamate + 16 µM compound, -60 mV, pH 7.4, 22 °C, mean±SEM, n=8
Sequence (P19491 22-883 isoform P19491-2 limits assumed): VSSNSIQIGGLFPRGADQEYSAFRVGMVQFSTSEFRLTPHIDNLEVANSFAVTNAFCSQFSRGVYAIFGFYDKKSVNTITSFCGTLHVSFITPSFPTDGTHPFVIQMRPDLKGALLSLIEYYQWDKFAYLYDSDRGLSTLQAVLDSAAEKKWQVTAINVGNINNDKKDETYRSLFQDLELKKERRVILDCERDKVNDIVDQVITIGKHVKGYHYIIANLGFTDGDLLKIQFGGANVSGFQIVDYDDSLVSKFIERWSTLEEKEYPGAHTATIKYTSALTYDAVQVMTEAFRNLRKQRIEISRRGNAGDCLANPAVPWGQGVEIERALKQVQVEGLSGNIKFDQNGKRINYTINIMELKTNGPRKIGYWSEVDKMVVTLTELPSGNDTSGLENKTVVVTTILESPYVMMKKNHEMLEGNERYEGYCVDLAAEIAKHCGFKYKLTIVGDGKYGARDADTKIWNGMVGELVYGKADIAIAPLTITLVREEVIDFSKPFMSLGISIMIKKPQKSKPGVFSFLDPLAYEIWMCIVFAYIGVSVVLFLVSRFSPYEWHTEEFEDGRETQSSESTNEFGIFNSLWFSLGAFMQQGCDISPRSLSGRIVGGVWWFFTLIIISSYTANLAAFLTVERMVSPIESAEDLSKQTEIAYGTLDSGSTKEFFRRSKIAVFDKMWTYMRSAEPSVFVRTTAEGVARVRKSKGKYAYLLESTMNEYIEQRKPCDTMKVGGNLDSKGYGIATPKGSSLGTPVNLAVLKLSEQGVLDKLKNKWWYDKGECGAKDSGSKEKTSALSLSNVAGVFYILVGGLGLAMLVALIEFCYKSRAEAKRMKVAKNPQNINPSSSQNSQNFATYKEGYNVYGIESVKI
Sequence (P19492 23-888 isoform P19492-2 limits assumed): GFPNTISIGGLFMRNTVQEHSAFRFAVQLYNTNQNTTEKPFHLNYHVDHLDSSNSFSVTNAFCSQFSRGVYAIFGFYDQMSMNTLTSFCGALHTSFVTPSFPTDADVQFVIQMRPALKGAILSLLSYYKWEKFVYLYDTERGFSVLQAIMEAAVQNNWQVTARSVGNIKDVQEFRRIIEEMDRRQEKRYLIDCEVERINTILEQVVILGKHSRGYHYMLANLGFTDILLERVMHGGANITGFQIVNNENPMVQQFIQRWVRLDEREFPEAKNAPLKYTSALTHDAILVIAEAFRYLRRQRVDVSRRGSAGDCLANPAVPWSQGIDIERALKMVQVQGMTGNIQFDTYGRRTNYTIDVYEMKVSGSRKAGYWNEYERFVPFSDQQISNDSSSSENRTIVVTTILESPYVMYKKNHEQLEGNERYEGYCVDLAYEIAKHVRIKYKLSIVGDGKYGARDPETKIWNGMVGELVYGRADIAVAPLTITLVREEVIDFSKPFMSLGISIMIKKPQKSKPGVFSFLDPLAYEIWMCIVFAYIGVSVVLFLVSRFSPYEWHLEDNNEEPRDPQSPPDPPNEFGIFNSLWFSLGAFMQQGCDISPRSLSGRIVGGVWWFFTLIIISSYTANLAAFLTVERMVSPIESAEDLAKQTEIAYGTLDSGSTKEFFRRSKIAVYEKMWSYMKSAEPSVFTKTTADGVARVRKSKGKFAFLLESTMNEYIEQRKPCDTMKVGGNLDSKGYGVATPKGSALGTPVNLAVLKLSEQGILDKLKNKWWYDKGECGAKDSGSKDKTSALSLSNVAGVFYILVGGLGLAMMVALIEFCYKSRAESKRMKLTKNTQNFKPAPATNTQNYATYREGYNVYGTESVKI
Readout name: Amplitude with compound (pA)

- Line notation: "O=C1Cc2cc3c(cc2C(c2ccc([N+](=O)[O-])cc2F)=NN1)OCO3"
  Unit label: "pA"
  Numeric value: 130
- Line notation: "COc1cc(N)ccc1C1=NNC(=O)Cc2cc3c(cc21)OCO3"
  Unit label: "pA"
  Numeric value: 52
- Line notation: "Nc1ccc(C2=NNC(=O)Cc3cc4c(cc32)OCO4)c(F)c1"
  Unit label: "pA"
  Numeric value: 49
- Line notation: "COc1cc([N+](=O)[O-])ccc1C1=NNC(=O)Cc2cc3c(cc21)OCO3"
  Unit label: "pA"
  Numeric value: 146
